# melting point listing for each entry below

Sample answers from the record:
>>> value_reported("COC(=O)[C@H]1Cc2c([nH]c3ccccc23)[C@@H](c2ccc(Cl)c(Cl)c2)N1")
"90 to 92 °C"
>>> value_reported("COC(=O)[C@@H]1Cc2c([nH]c3ccccc23)[C@@H](c2ccc(Cl)c(Cl)c2)N1C(=O)CCl")
"162 to 165 °C"
>>> value_reported("COC(=O)[C@@H]1Cc2c([nH]c3ccccc23)[C@H](c2ccc(Cl)cc2Cl)N1")
"90 to 92 °C"
>>> value_reported("COC(=O)[C@H]1Cc2c([nH]c3ccccc23)[C@@H](c2ccc(Cl)cc2Cl)N1")
"88 to 92 °C"
>>> value_reported("COC(=O)[C@H]1Cc2c([nH]c3ccccc23)[C@@H](c2c(Cl)cccc2Cl)N1")
"102 to 105 °C"
>>> value_reported("COC(=O)[C@@H]1Cc2c([nH]c3ccccc23)[C@@H](c2cc(OC)ccc2OC)N1")
"138 to 141 °C"
>>> value_reported("COC(=O)[C@@H]1Cc2c([nH]c3ccccc23)[C@@H](c2ccc(Cl)cc2Cl)N1C(=O)CCl")
"109 to 112 °C"
>>> value_reported("COC(=O)[C@H]1Cc2c([nH]c3ccccc23)[C@H](c2ccc(Cl)cc2Cl)N1")
"130 to 133 °C"
>>> value_reported("COC(=O)[C@@H]1Cc2c([nH]c3ccccc23)[C@H](c2cc(OC)ccc2OC)N1")
"100 to 102 °C"
>>> value_reported("COC(=O)[C@H]1Cc2c([nH]c3ccccc23)[C@@H](c2ccc(Cl)c(Cl)c2)N1C(=O)CCl")
"283 to 285 °C"

Incoming: What measured melting point goes with COC(=O)[C@H]1Cc2c([nH]c3ccccc23)[C@H](c2cc(OC)ccc2OC)N1C(=O)CCl ?
Outgoing: 232 °C

Reference source: patent US9169247B2
